tested-on: human BAFF (human, UniProt Q9Y275 82-285, limits assumed)
Sequence (Q9Y275 82-285 limits assumed): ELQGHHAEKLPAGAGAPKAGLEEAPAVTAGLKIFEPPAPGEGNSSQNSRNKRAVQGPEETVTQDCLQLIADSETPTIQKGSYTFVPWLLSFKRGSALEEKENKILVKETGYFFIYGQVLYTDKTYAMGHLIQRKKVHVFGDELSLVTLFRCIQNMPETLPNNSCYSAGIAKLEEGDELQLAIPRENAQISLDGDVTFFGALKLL
assay-details: NNS library, phage display;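 further: ligand versus display occurrence-to-degeneracy ratio and higher means enriched by binding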
readout-kind: F' BAFF
Answer field: number only, no words.

Query string: What value of measured F' BAFF is listed for SLSCRKEQGKCYDHLLRDCISCASICGQHPKQCAYFCENKLR (receptor, phage library variant, format as m9) [TACI_d2 F78C] ?
Result string: 0

Query string: What value of measured F' BAFF is listed for SLSCRKEQGKFYDHLLNDCISCASICGQHPKQCAYFCENKLR (receptor, phage library variant, format as m9) [TACI_d2 R84N] ?
Result string: 1

Query string: What value of measured F' BAFF is listed for SLSCRKEQGKFPDHLLRDCISCASICGQHPKQCAYFCENKLR (receptor, phage library variant, format as m9) [TACI_d2 Y79P] ?
Result string: 3
